# Tested on: BT-549
# Assay conditions: read-out: Cytotoxic activity IC50; BT-549, 72 h, mean of three independent experiments ± S.D.
Quantity measured: pIC50
In plain terms, pIC50 is the concentration in mol/L turned into minus its base-10 logarithm.

Quick note, pIC50 for COc1ccc([C@@H]2c3cc4c(cc3C[C@H]3COC(=O)[C@@H]32)OCO4)cc1OC [Compound 3, 5′-demethoxydeoxypodophyllotoxin] landed at 7.68

Quick note, pIC50 for COc1cc([C@@H]2c3cc4c(cc3[C@H](O)[C@H]3COC(=O)[C@H]23)OCO4)cc(OC)c1OC [POD, Podophyllotoxin, reference compound] landed at 8.30

Quick note, pIC50 for COc1cc([C@@H]2c3cc4c(cc3[C@@H](O[C@@H]3O[C@@H]5CO[C@@H](C)O[C@H]5[C@H](O)[C@H]3O)[C@H]3COC(=O)[C@H]23)OCO4)cc(OC)c1O [VP-16, etoposide, reference compound] landed at 6.80

Quick note, pIC50 for COc1cc([C@@H]2c3cc4c(cc3[C@H](OC(C)=O)[C@H]3COC(=O)[C@H]23)OCO4)cc(OC)c1OC [Compound 2, acetylpodophyllotoxin] landed at 7.96

----------
# Test system: MDA-MB-231
# Assay conditions: read-out: Cytotoxic activity IC50; MDA-MB-231, 72 h, mean of three independent experiments ± S.D.
Quantity measured: pIC50
In plain terms, pIC50 is the concentration in mol/L turned into minus its base-10 logarithm.

The reported MDA-MB-231 pIC50 of COc1cc([C@@H]2c3cc4c(cc3[C@@H](O[C@@H]3O[C@@H]5CO[C@@H](C)O[C@H]5[C@H](O)[C@H]3O)[C@H]3COC(=O)[C@H]23)OCO4)cc(OC)c1O [VP-16, etoposide, reference compound] is 7.42

The reported MDA-MB-231 pIC50 of COc1cc([C@@H]2c3cc4c(cc3[C@H](O)[C@H]3COC(=O)[C@H]23)OCO4)cc(OC)c1OC [POD, Podophyllotoxin, reference compound] is 7.62

The reported MDA-MB-231 pIC50 of COc1cc([C@@H]2c3cc4c(cc3[C@H](OC(C)=O)[C@H]3COC(=O)[C@H]23)OCO4)cc(OC)c1OC is 6.74

The reported MDA-MB-231 pIC50 of COc1ccc([C@@H]2c3cc4c(cc3C[C@H]3COC(=O)[C@@H]32)OCO4)cc1OC is 6.84

----------
Give percentage of survival for every item shown.
# Test system: BT-549
# Assay conditions: BT-549, 0.08 µg/mL, 72 h

Quick note, percentage of survival for COc1cc([C@@H]2c3cc4c(cc3[C@H](OC(C)=O)[C@H]3COC(=O)[C@H]23)OCO4)cc(OC)c1OC [Compound 2, acetylpodophyllotoxin] landed at 96% ± 5.5%

Quick note, percentage of survival for COc1cc(C2=C3C(=O)OC[C@@H]3[C@@H](OC(C)=O)c3cc4c(cc32)OCO4)cc(OC)c1OC [Compound 4, 7′,8′-dehydroacetylpodophyllotoxin] landed at 74% ± 7.4%

Quick note, percentage of survival for COc1cc([C@@H]2c3cc4c(cc3[C@@H](O[C@@H]3O[C@@H]5CO[C@@H](C)O[C@H]5[C@H](O)[C@H]3O)[C@H]3COC(=O)[C@H]23)OCO4)cc(OC)c1O [VP-16, etoposide, reference compound] landed at 67% ± 7.5%

Quick note, percentage of survival for COc1ccc([C@@H]2c3cc4c(c(OC)c3C[C@H]3COC(=O)[C@@H]32)OCO4)cc1OC [Compound 1, 5′-demethoxy-β-peltatin-A-methylether] landed at 82% ± 15.7%

Values were extracted from paper PMC6274026.
